Recorded values, source patent US20190330189A1.

experimental.readout: melting point (°C)
Express your answer in °C, writing the number without its unit.

# annotated cases, reported melting point shown
1. Cc1nn2ccccc2c1C(=O)NCc1ccc(C2CC3(C2)CN(c2ccccc2)C3)cc1 ... 201.15
2. CCc1nn2ccccc2c1C(=O)NCc1ccc(C2CC3(C2)CN(c2ccc(OC(F)(F)F)cc2)C3)cc1 ... 105.98
3. CCc1nc2sc(C)cn2c1C(=O)NCc1ccc(N2CC3(CCC3)C2)cc1 ... 300
4. CCc1nc2ccc(Cl)cn2c1C(=O)NCc1ccc(N2CC3(CC(c4ccncc4)C3)C2)cc1 ... 192.86
5. CCc1nc2ncc(Cl)cn2c1C(=O)NCc1ccc(C2CC3(C2)CN(C(=O)C(F)(F)F)C3)cc1 ... 160.59
6. CCc1nc2ccc(Cl)cn2c1C(=O)NCc1ccc(N2CC3(CN(C(=O)c4ccccc4)C3)C2)cc1 ... 204.21

Shifting focus to the compound that follows.
Q: What value of measured melting point is listed for CCc1nc2ccc(Cl)cn2c1C(=O)NCc1ccc(N2CCC3(C2)CN(c2ccc(OC(F)(F)F)cc2)C3)cc1 ?
Result: 183.86

###

experimental.readout: melting point (°C)
Express your answer in °C, writing the number without its unit.

1) Cc1nc2sc(Cl)cn2c1C(=O)NCc1ccc(N2CC3(CC(=O)C3)C2)cc1 [Compound 129] ... 188.46
2) CCc1nc2ccc(Cl)cn2c1C(=O)NCc1ccc(N2CCC3(CC2)CC(F)(F)C3)cc1 [Compound 125] ... 146.77
3) CCc1nc2ncc(Cl)cn2c1C(=O)NCc1ccc(N2CCC3(CC2)CC(OC(F)(F)F)C3)cc1 [Compound 153] ... 150.61

Q: What value of measured melting point is listed for CCc1nc2ccc(Cl)cn2c1C(=O)NCc1ccc(N2CC3(CC(c4nccs4)C3)C2)cc1 [Compound 124] ?
Result: 135.97

Q: What value of measured melting point is listed for CCc1nn2c(OC)cccc2c1C(=O)NCc1ccc(C2CC3(C2)CN(c2ccc(OC(F)(F)F)cc2)C3)cc1 [Compound 147] ?
Result: 151.74

Q: What value of measured melting point is listed for CCc1nc2ccc(Cl)cn2c1C(=O)NCc1ccc(N2CC3(CC(n4cncn4)C3)C2)cc1 [Compound 123] ?
Result: 166.63

Q: What value of measured melting point is listed for Cc1nn2ccccc2c1C(=O)NCc1ccc(N2CC3(C2)CN(c2ccc(OC(F)(F)F)cc2)C3)cc1 [Compound 142] ?
Result: 193.19

Q: What value of measured melting point is listed for CCc1nc2ncc(Cl)cn2c1C(=O)NCc1ccc(N2CC3(CC(=O)C3)C2)cc1 [Compound 126] ?
Result: 187.49

Q: What value of measured melting point is listed for CCc1nn2c(Cl)cccc2c1C(=O)NCc1ccc(C2CC3(C2)CN(c2ccc(OC(F)(F)F)cc2)C3)cc1 [Compound 146] ?
Result: 119.23

Q: What value of measured melting point is listed for CCc1nc2ncc(Cl)cn2c1C(=O)NCc1ccc(N2CC3(CC(Oc4ccc(F)cc4)C3)C2)cc1 [Compound 152] ?
Result: 350

Q: What value of measured melting point is listed for CCc1nc2ccc(Cl)cn2c1C(=O)NCc1ccc(N2CC3(CC(c4ccc(OC)c(F)c4)C3)C2)cc1 [Compound 87] ?
Result: 190.35

Q: What value of measured melting point is listed for CCc1nc2ccc(Cl)cn2c1C(=O)NCc1ccc(C2CC3(C2)CN(C(=O)C(F)(F)F)C3)cc1 [Compound 92] ?
Result: 80.75

Q: What value of measured melting point is listed for CCc1nc2ncc(Cl)cn2c1C(=O)NCc1ccc(N2CC3(CC(OC(F)(F)F)C3)C2)cc1 [Compound 131] ?
Result: 172.76

Q: What value of measured melting point is listed for Cc1nc2sc(F)cn2c1C(=O)NCc1ccc(N2CC3(CC(=O)C3)C2)cc1 [Compound 118] ?
Result: 201.34

Q: What value of measured melting point is listed for CCc1nc2ncc(Cl)cn2c1C(=O)NCc1ccc(C2CC3(C2)CN(c2cccnc2)C3)cc1 [Compound 122] ?
Result: 161.23

###

Listed next: entries and their corresponding melting point.
Express your answer in °C, writing the number without its unit.

# annotated cases, reported melting point shown
1. CCc1nc2ncc(Cl)cn2c1C(=O)NCc1ccc(N2CCC3(CC2)CC(F)(F)C3)cc1 ... 84.29
2. CCc1nc2n(c1C(=O)NCc1ccc(N3CC4(CC(OC(F)(F)F)C4)C3)cc1)CCCC2 ... 169.56

Q: What value of measured melting point is listed for CCc1nc2ncc(Cl)cn2c1C(=O)NCc1ccc(N2CC3(C2)CN(c2cccnc2)C3)cc1 ?
Result: 241.08

###

Listed next: entries and their corresponding melting point.
Express your answer in °C, writing the number without its unit.

# annotated cases, reported melting point shown
1) CCc1nc2ccc(Cl)cn2c1C(=O)NCc1ccc(C2CC3(C2)CN(c2cnccn2)C3)cc1 ... 149.46
2) CCc1nc2sc(C)cn2c1C(=O)NCc1ccc(N2CC3(CC(c4ccc(OC(F)(F)F)cc4)C3)C2)cc1 ... 108.84
3) Cc1nn2ccccc2c1C(=O)NCc1ccc(N2CC3(C2)CN(c2ccc(S(F)(F)(F)(F)F)cc2)C3)cc1 ... 238.06

Q: What value of measured melting point is listed for CCc1nc2ccc(Cl)cn2c1C(=O)NCc1ccc(N2CC3(CC(c4ccnn4C)C3)C2)cc1 ?
Result: 101.95
